Reference source for all entries: the supplement of paper PMC10567573

Each record here notes measured protein stability index.
B1: BTBD1 (parent)
chain: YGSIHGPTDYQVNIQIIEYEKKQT

Variants of: B1
test-method-notes: protein stability index of a GFP-peptide fusion (GPS, HEK-293T) (PSI 1-6); higher = more stable;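 also: lentivirally expressed fusions sorted by FACS into six bins by GFP to DsRed ratio, PSI derived from sequencing read proportions per bin multiplied by bin number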
experimental-parameters: c terminus: a fixed tail appended
Give the figure by itself; no unit, no explanation.

[
  {
    "mutation-name": "H5Y",
    "protein stability index": 1.98
  },
  {
    "mutation-name": "H5G",
    "protein stability index": 3.06
  },
  {
    "mutation-name": "V12C",
    "protein stability index": 2.77
  }
]

// query Look up protein stability index: `Y1S`
// result 3.79

// query Look up protein stability index: `N13H`
// result 2.48

// query Look up protein stability index: `K21H`
// result 1.83

// query Look up protein stability index: `T24S`
// result 2.98

// query Look up protein stability index: `I4R`
// result 1.93

// query Look up protein stability index: `V12G`
// result 3.52

// query Look up protein stability index: `G2L`
// result 2.08

// query Look up protein stability index: `K22S`
// result 1.78
